Tested on: Mycobacterium tuberculosis
Measurement Protocol: Antibacterial activity against drug-resistant Mycobacterium tuberculosis 164 by microbroth dilution method
Type: functional
Measure: MIC (µg/mL)
// return numeric value only (unit: µg/mL, not printed)

Smiles Input: NCCC[C@H](N)CC(=O)NCCC[C@H](N)CC(=O)N[C@@H]1[C@H](O)[C@@H](O)[C@@H](COC(N)=O)O[C@H]1/N=C1\N[C@@H]2[C@H](O)CNC(=O)[C@H]2N1
Experimental Value: 8
//
Smiles Input: CO[C@H]1/C=C/O[C@@]2(C)Oc3c(C)c(O)c4c(O)c(c(/C=N/N5CCN(C)CC5)c(O)c4c3C2=O)NC(=O)/C(C)=C\C=C\[C@H](C)[C@H](O)[C@@H](C)[C@@H](O)[C@@H](C)[C@H](OC(C)=O)[C@@H]1C
Experimental Value: 32
//
Smiles Input: NCCC[C@H](N)CC(=O)NCCC[C@H](N)CC(=O)N[C@@H]1[C@H](O)[C@@H](OC(N)=O)[C@@H](CO)O[C@H]1NC1=N[C@@H]2C(=O)NC[C@@H](O)[C@H]2N1
Experimental Value: 0.5

# next molecule below
Request: Request the reported MIC associated with NNC(=O)c1ccncc1
Response: 4
